Source of measurements: patent US20220356186A1

System: GFP-eIF2α in HEK293 cells
EXPERIMENTAL_DETAILS: PERK cellular assay, TR-FRET in HEK293-EGFP-eIF2a cells after tunicamycin-induced ER stress
Format: cell-based
EXPERIMENTAL_PARAMETERS: HEK293-EGFP-eIF2a cells, tunicamycin 2 hours; read-out: Cellular eIF2α IC50
MEASUREMENT_LABEL: IC50

>>> df
                                   compound         result
0  Cc1cccc(C(O)C(=O)Nc2ccc(-c3cn(C)c4nc(C)nc(N)c34)c(Cl)c2)c1 (stereo not shown) [Example 95]  251 to 500 nM
1  Cc1nc(N)c2c(-c3ccc(NC(=O)C(O)c4cccc(F)c4)cc3Cl)cn(C)c2n1 (stereo not shown) [Example 92]   51 to 100 nM
2  Cc1nc(N)c2c(-c3ccc(NC(=O)C(O)c4cccc(F)c4)cc3C(F)(F)F)cn(C)c2n1 (stereo not shown) [Example 19]  101 to 250 nM

What measured IC50 goes with Cc1nc(N)c2c(-c3ccc(NC(=O)C(O)c4cccc(F)c4)cc3C(F)(F)F)cn(C)c2n1 (stereo not shown) [Example 20] ?
1000 to 2000 nM

What measured IC50 goes with Cc1cc(NC(=O)C(O)c2cccc(C(F)(F)F)c2)ccc1-c1cn(C)c2ncnc(N)c12 (stereo not shown) [Example 48] ?
51 to 100 nM

What measured IC50 goes with Cc1nc(N)c2c(-c3ccc(NC(=O)C(O)c4cccc(C(F)(F)F)n4)cc3C)cn(C)c2n1 (stereo not shown) [Example 61] ?
501 to 1000 nM

What measured IC50 goes with CCc1cccc(C(O)C(=O)Nc2ccc(-c3cn(C)c4nc(C)nc(N)c34)c(Cl)c2)c1 (stereo not shown) [Example 97] ?
1 to 25 nM

###

TESTED_ON: EIF2AK3 (PERK) catalytic domain (amino acids 536-1116) (Homo sapiens)
Construct: EIF2AK3 (PERK) catalytic domain (amino acids 536-1116)
Sequence (Q9NZJ5 536-1116): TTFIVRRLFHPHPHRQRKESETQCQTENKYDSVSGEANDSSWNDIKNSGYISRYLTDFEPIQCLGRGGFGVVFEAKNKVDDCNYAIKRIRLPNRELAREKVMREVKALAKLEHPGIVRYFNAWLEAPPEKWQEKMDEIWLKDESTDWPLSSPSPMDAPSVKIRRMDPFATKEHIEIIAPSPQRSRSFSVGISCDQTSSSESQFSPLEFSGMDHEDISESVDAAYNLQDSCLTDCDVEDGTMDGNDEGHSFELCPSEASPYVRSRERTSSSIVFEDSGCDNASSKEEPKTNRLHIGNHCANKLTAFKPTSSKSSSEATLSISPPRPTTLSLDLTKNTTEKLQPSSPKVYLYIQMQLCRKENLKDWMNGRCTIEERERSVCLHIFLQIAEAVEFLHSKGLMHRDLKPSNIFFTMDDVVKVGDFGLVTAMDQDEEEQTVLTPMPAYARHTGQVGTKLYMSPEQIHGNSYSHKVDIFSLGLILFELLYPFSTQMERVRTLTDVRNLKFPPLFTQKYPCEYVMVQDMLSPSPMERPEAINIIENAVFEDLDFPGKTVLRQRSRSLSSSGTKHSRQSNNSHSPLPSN
EXPERIMENTAL_DETAILS: PERK in vitro activity assay (isolated), TR-FRET kinase assay
Type: biochemical
EXPERIMENTAL_PARAMETERS: isolated PERK enzyme, 1.5 μM ATP; read-out: Biochemical IC50
pIC50: −log10 of the molar value.
Here the recorded pIC50 is given for each entry.

Use the examples below as a reference point.
In [3]: df
Out[3]:
                                   compound  measurement_label        result
0  Cc1nc(N)c2c(-c3ccc(NC(=O)C(O)c4cccc(F)c4)cc3C(F)(F)F)cn(C)c2n1 (stereo not shown) [Example 20]              pIC50  7.00 to 7.29
1  Cc1nc(N)c2c(-c3ccc(NC(=O)C(O)c4cccc(Cl)c4)c(F)c3F)cn(C)c2n1 (stereo not shown) [Example 111]              pIC50  7.60 to 9.00
2  Cc1nc(N)c2c(-c3cc(F)c(NC(=O)C(O)c4cccc(F)c4)cc3C)cn(C)c2n1 (single isomer, unassigned) [Example 122]              pIC50  6.60 to 7.00

Let us examine a further case.
What measured pIC50 goes with CCc1cccc(CC(=O)Nc2ccc(-c3cn(C)c4ncnc(N)c34)c(C)c2)c1 ?
7.60 to 9.00

###

TESTED_ON: EIF2AK3 (PERK) catalytic domain (amino acids 536-1116) (Homo sapiens, UniProt Q9NZJ5)
Construct: EIF2AK3 (PERK) catalytic domain (amino acids 536-1116)
EXPERIMENTAL_DETAILS: PERK in vitro activity assay (isolated), TR-FRET kinase assay
Type: biochemical
EXPERIMENTAL_PARAMETERS: isolated PERK enzyme, 1.5 μM ATP; read-out: Biochemical IC50
Here the recorded IC50 is given for each entry.

Use the examples below as a reference point.
>>> df
                                   compound                                 tested_on  measurement_label      result
0  Cc1nc(N)c2c(-c3cc(F)c(NC(=O)C(O)c4cccc(F)c4)cc3C)cn(C)c2n1 (single isomer, unassigned) [Example 121]  EIF2AK3 (PERK) catalytic domain (amino acids 536-1116) (Homo sapiens, UniProt Q9NZJ5)               IC50  1 to 25 nM
1  Cc1nc(N)c2c(-c3ccc(NC(=O)C(O)c4cccc(Cl)c4)cc3C)cn(C)c2n1 (stereo not shown) [Example 36]  EIF2AK3 (PERK) catalytic domain (amino acids 536-1116) (Homo sapiens, UniProt Q9NZJ5)               IC50  1 to 25 nM
2  Cc1cccc(CC(=O)Nc2ccc(-c3cn(C)c4ncnc(N)c34)c(C)c2)c1  EIF2AK3 (PERK) catalytic domain (amino acids 536-1116) (Homo sapiens, UniProt Q9NZJ5)               IC50  1 to 25 nM

Let us examine a further case.
What measured IC50 goes with CCc1cccc(C(O)C(=O)Nc2ccc(-c3cn(C)c4nc(C)nc(N)c34)c(F)c2)c1 (stereo not shown) [Example 76] ?
1 to 25 nM

###

TESTED_ON: EIF2AK3 (PERK) catalytic domain (amino acids 536-1116) (Homo sapiens)
Construct: EIF2AK3 (PERK) catalytic domain (amino acids 536-1116)
EXPERIMENTAL_DETAILS: PERK in vitro activity assay (isolated), TR-FRET kinase assay
Format: biochemical
EXPERIMENTAL_PARAMETERS: isolated PERK enzyme, 1.5 μM ATP; read-out: Biochemical IC50
Excerpt: PERK In Vitro Activity Assay (Isolated): […] Express and purify HIS-SUMO-GCN2 catalytic domain (amino acids 584-1019) from E. coli. […] Monitor the resulting fluorescence in an EnVison® Multilabel reader (PerkinElmer, Waltham, Mass.). […]
MEASUREMENT_LABEL: IC50

Use the examples below as a reference point.
>>> df
                                   molecule  measurement_label         result
0  Cc1c(-c2cn(C)c3ncnc(N)c23)ccc(NC(=O)C(O)c2cccc(F)c2)c1F (stereo not shown) [Example 117]               IC50     1 to 25 nM
1  Cc1nc(N)c2c(-c3ccc(NC(=O)C(O)c4cc(F)cc(C(F)(F)F)c4)cc3F)cn(C)c2n1 (stereo not shown) [Example 87]               IC50     1 to 25 nM
2  Cc1nc(N)c2c(-c3ccc(NC(=O)C(O)c4cc(F)cc(F)c4)cc3C)cn(C)c2n1 (stereo not shown) [Example 53]               IC50    26 to 50 nM
3  Cc1nc(N)c2c(-c3ccc(NC(=O)C(O)c4cccc(F)c4)c(F)c3)cn(C)c2n1 (stereo not shown) [Example 89]               IC50  251 to 500 nM
4  Cc1nc(N)c2c(-c3ccc(NC(=O)C(O)c4cccc(C(F)(F)F)c4)c(F)c3F)cn(C)c2n1 (stereo not shown) [Example 108]               IC50  101 to 250 nM

Let us examine a further case.
What value of IC50 on EIF2AK3 (PERK) catalytic domain (amino acids 536-1116) (Homo sapiens) does Cc1cc(NC(=O)Cc2cccc3ccccc23)ccc1-c1cn(C)c2ncnc(N)c12 [Example 153] have?
1 to 25 nM

###

Here the recorded pIC50 is given for each entry.
TESTED_ON: EIF2AK3 (PERK) catalytic domain (amino acids 536-1116) (Homo sapiens, UniProt Q9NZJ5)
Construct: EIF2AK3 (PERK) catalytic domain (amino acids 536-1116)
EXPERIMENTAL_DETAILS: PERK in vitro activity assay (isolated), TR-FRET kinase assay
Assay type: biochemical
EXPERIMENTAL_PARAMETERS: biochemical potency, Table 2; read-out: PERK IC50
Schema: pIC50 number; meaning minus log10 of the concentration expressed in molar units.

>>> print(df.to_string())
                                   compound  measurement_label  readout_number
0  Cc1cc(NC(=O)Cc2ccccc2)ccc1-c1cn(C)c2ncnc(N)c12 [Compound A, reference compound]              pIC50            8.22

Let us examine a further case.
What measured pIC50 goes with Cc1cc(NC(=O)C(O)c2ccccc2)ccc1-c1cn(C)c2ncnc(N)c12 (centres unmarked) ?
8.70
